Listing of recorded activation factor by entry.
test: compounds boosting diaphorase resazurin reduction – biochemical, uHTS, resorufin fluorescence, counter-screen for diaphorase-coupled primary assays, primary screen (AID 1229); settings: Diaphorase/resazurin coupled assay, 16 min, at 20 µM, hits give high values, 1 = vehicle wells, 0 = NADH-free wells
In all, about 190,000 compounds went through this assay and about 10 (0.005%) were called active. The entries come from a sample that favours actives as a whole.

Solved cases (3 shown):
                                inputsmiles        observed
0  CCCN(CC(=O)Nc1ccc(OC)c(OC)c1)CC(=O)Nc1ccc(F)c(F)c1F  0.9 (inactive)
1                Cc1cc(C)nc(SCC(=O)N(C)C)n1    1 (inactive)
2                        C=CCNCCCCOc1ccccc1  1.1 (inactive)

**Q:** State, in one line, measured activation factor of CCCCC(=O)Nc1ccc(C(=O)Nc2cc(C(F)(F)F)ccc2Cl)cc1
**A:** 1 (inactive)

**Q:** State, in one line, measured activation factor of COc1cc2[nH]c(=S)n(Cc3ccc(F)cc3)c(=O)c2cc1OC
**A:** 0.9 (inactive)

**Q:** State, in one line, measured activation factor of CCn1c(COc2c(C)cccc2C)nnc1SCc1nc2ccccc2c(=O)[nH]1
**A:** 0.7 (inactive)
